method_description: Photostability under UV irradiation (photolysis kinetics)
Format: physicochemical
run_parameters: aqueous solution 26.6 μmol/L, 15 W UV lamp 254 nm, 25 °C
# K, first-order photolysis rate constant per entry

>  <compound>
CCCCCCCCC(=O)O.CCCN(CCOc1c(Cl)cc(Cl)cc1Cl)C(=O)n1ccnc1 [[Pro][NonA]]

>  <K, first-order photolysis rate constant>
0.438 h⁻¹

$$$$

For record CC(=O)O.CCCN(CCOc1c(Cl)cc(Cl)cc1Cl)C(=O)n1ccnc1 [[Pro][AceA]] the listed K, first-order photolysis rate constant is 0.400 h⁻¹

For record CCCN(CCOc1c(Cl)cc(Cl)cc1Cl)C(=O)n1ccnc1 the listed K, first-order photolysis rate constant is 0.641 h⁻¹

For record CC(O)C(=O)O.CCCN(CCOc1c(Cl)cc(Cl)cc1Cl)C(=O)n1ccnc1 [[Pro][LacA]] the listed K, first-order photolysis rate constant is 0.391 h⁻¹

For record CCCN(CCOc1c(Cl)cc(Cl)cc1Cl)C(=O)n1ccnc1.O=C(O)c1ccccc1O [[Pro][SalA]] the listed K, first-order photolysis rate constant is 0.401 h⁻¹

----------
# inhibition at 26.5 µM per entry
Tested on: Colletotrichum gloeosporioides
method_description: Fungicidal activity, mycelial growth inhibition on PDA plates
run_parameters: Colletotrichum gloeosporioides, read-out: Inhibition rate
# unit: % | format: bare number

Solved cases below.
>  <compound>
O=C(O)/C=C/c1ccccc1 [Cinnamic acids, Cinnamic acid]

>  <inhibition at 26.5 µM (%)>
7.5

$$$$
>  <compound>
CCCCCCCCC(=O)O [Nonanoic acids, Nonanoic acid]

>  <inhibition at 26.5 µM (%)>
1.8

$$$$
>  <compound>
CCCN(CCOc1c(Cl)cc(Cl)cc1Cl)C(=O)n1ccnc1 [Prochloraz]

>  <inhibition at 26.5 µM (%)>
100

$$$$
>  <compound>
CC(=O)C(=O)O [Pyruvic acids, Pyruvic acid]

>  <inhibition at 26.5 µM (%)>
4.5

$$$$

Next compound, please.
inhibition at 26.5 µM for Colletotrichum gloeosporioides with input O=C(O)c1ccccc1O [Salicylic acids, Salicylic acid] equals 4.5

----------
System: Colletotrichum gloeosporioides
method_description: Fungicidal activity, mycelial growth inhibition on PDA plates
run_parameters: Colletotrichum gloeosporioides, read-out: Inhibition rate
# inhibition at 26.5 µM per entry
# unit: % | format: bare number

Solved cases below.
>  <compound>
CCCCCCCC/C=C\CCCCCCCC(=O)O [Oleic acids, Oleic acid]

>  <measurement_unit>
%

>  <inhibition at 26.5 µM>
3.4

$$$$
>  <compound>
CC(O)C(=O)O (stereo not drawn) [Lactic acids, Lactic acid]

>  <measurement_unit>
%

>  <inhibition at 26.5 µM>
6

$$$$

For record O=C(O)c1ccccc1 [Benzoic acids, Benzoic acid] the listed inhibition at 26.5 µM is 7.2

----------
method_description: Photostability under UV irradiation (photolysis kinetics)
Format: physicochemical
run_parameters: aqueous solution 26.6 μmol/L, 15 W UV lamp 254 nm, 25 °C; read-out: t1/2, photolysis half-life (converted)
recorded_metric: half-life at 26.6 μmol/L
State the result as a value with its unit after it.

Solved cases below.
>  <compound>
CCCN(CCOc1c(Cl)cc(Cl)cc1Cl)C(=O)n1ccnc1

>  <recorded_metric>
half-life at 26.6 μmol/L

>  <reading>
64.8 min

$$$$
>  <compound>
CCCN(CCOc1c(Cl)cc(Cl)cc1Cl)C(=O)n1ccnc1.O=C(O)c1ccccc1 [[Pro][BenA]]

>  <recorded_metric>
half-life at 26.6 μmol/L

>  <reading>
54 min

$$$$
>  <compound>
CCCN(CCOc1c(Cl)cc(Cl)cc1Cl)C(=O)n1ccnc1.O=C(O)c1ccccc1O [[Pro][SalA]]

>  <recorded_metric>
half-life at 26.6 μmol/L

>  <reading>
104 min

$$$$
>  <compound>
CC(=O)O.CCCN(CCOc1c(Cl)cc(Cl)cc1Cl)C(=O)n1ccnc1 [[Pro][AceA]]

>  <recorded_metric>
half-life at 26.6 μmol/L

>  <reading>
104 min

$$$$

Next compound, please.
For record CC(O)C(=O)O.CCCN(CCOc1c(Cl)cc(Cl)cc1Cl)C(=O)n1ccnc1 [[Pro][LacA]] the listed half-life at 26.6 μmol/L is 106 min
